- targetOfAssay: FXa (Homo sapiens, UniProt P00742)
- Sequence (P00742 235-488 limits assumed): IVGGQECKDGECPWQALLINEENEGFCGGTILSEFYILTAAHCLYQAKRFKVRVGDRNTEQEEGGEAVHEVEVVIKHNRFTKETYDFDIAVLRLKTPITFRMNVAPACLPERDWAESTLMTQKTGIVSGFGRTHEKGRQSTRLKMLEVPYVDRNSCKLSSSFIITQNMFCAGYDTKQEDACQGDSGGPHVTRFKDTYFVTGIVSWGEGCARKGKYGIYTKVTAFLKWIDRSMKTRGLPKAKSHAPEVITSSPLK
- Sequence (P00742 41-179 partner limits assumed): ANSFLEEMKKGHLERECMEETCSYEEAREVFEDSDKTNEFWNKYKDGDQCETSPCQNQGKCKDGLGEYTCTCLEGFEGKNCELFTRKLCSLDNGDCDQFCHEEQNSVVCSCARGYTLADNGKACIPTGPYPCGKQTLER
pIC50: −log10 of the molar value.
measuredMetric: pIC50

{"compound": "Cc1cc(NC(=O)[C@@H](CC(C)C)NC(=O)c2ccc(Cl)s2)ccc1N1CCOCC1=O [Compound 1A]", "targetOfAssay": "FXa (Homo sapiens, UniProt P00742)", "measuredMetric": "pIC50", "measValue": 8.14}
